- CONDITION CONTEXT: cell viability/%
Where a SMILES comes first, the peptide text is derived from it. [ ]: non-standard residue; d: D form. The star is where a group is joined. NHCH2CH2OH = OCCN*; For = O=C*
ENDPOINT LABEL: viability (%)
One number for each entry, in %.

Which viability reading was recorded for the compound CC(C)C[C@@H](NC(=O)[C@H](C)NC(=O)CNC(=O)[C@@H](NC=O)C(C)C)C(=O)N[C@@H](C)C(=O)N[C@H](CC(C)C)C(=O)N[C@H](C(=O)N[C@@H](C(=O)N[C@@H](Cc1c[nH]c2ccccc12)C(=O)N[C@@H](C(=O)N[C@@H](Cc1c[nH]c2ccccc12)C(=O)N[C@@H](C(=O)N[C@@H](Cc1c[nH]c2ccccc12)C(=O)N[C@@H](C(=O)N[C@@H](Cc1c[nH]c2ccccc12)C(=O)NCCO)C(C)C)C(C)C)C(C)C)[C@H](C)O)C(C)C [compound 10609] (For-VGA[dL]A[dL]V[dT]W[dV]W[dV]W[dV]W-NHCH2CH2OH) ? 79.4

---

- Test system: P388 mouse leukemia cells
- CONDITION CONTEXT: 92 h
Where a SMILES comes first, the peptide text is derived from it. [ ]: non-standard residue; d: D form. The star is where a group is joined. NHCH2CH2OH = OCCN*; For = O=C*
So I've got a bunch of compounds here, and I need their cell viability/% values.
Numbers only, in %.

• CC(C)C[C@@H](NC(=O)[C@H](C)NC(=O)CNC(=O)[C@@H](NC=O)C(C)C)C(=O)N[C@@H](C)C(=O)N[C@@H](C(=O)N[C@H](C(=O)N[C@@H](C(=O)N[C@@H](Cc1c[nH]c2ccccc12)C(=O)N[C@@H](C(=O)N[C@@H](Cc1c[nH]c2ccccc12)C(=O)N[C@H](CC(C)C)C(=O)N[C@@H](Cc1c[nH]c2ccccc12)C(=O)N[C@@H](C(=O)N[C@@H](Cc1c[nH]c2ccccc12)C(=O)NCCO)C(C)C)C(C)C)C(C)C)C(C)C)C(C)C [compound 11438] (For-VGA[dL]A[dV]V[dV]W[dV]W[dL]W[dV]W-NHCH2CH2OH) = 100.0
• CNC(=O)C[C@@H](NC(=O)[C@@H](NC(=O)[C@@H](CC(C)C)NC(=O)[C@H](C)NC(=O)[C@H](NC(=O)[C@H](C)NC(=O)CNC(=O)[C@@H](NC=O)C(C)C)C(C)C)C(C)C)C(=O)N[C@@H](Cc1c[nH]c2ccccc12)C(=O)N[C@@H](C(=O)N[C@@H](Cc1c[nH]c2ccccc12)C(=O)N[C@@H](C(=O)N[C@@H](Cc1c[nH]c2ccccc12)C(=O)N[C@@H](C(=O)N[C@@H](Cc1c[nH]c2ccccc12)C(=O)NCCO)C(C)C)C(C)C)C(C)C [compound 8459] (For-VGA[dV]A[dL]V[dD](NHMe)W[dV]W[dV]W[dV]W-NHCH2CH2OH) = 47.5
• CC(C)C[C@@H](NC(=O)[C@H](C)NC(=O)CNC(=O)[C@@H](NC=O)C(C)C)C(=O)N[C@@H](C)C(=O)N[C@H](CC(C)C)C(=O)N[C@H](C(=O)N[C@H](CC(C)C)C(=O)N[C@@H](Cc1c[nH]c2ccccc12)C(=O)N[C@@H](C(=O)N[C@@H](Cc1c[nH]c2ccccc12)C(=O)N[C@H](CC(C)C)C(=O)N[C@@H](Cc1c[nH]c2ccccc12)C(=O)N[C@H](CC(C)C)C(=O)N[C@@H](Cc1c[nH]c2ccccc12)C(=O)NCCO)C(C)C)C(C)C [compound 11198] (For-VGA[dL]A[dL]V[dL]W[dV]W[dL]W[dL]W-NHCH2CH2OH) = 3.2

Could you now consider this next compound?
For the compound CC(C)C[C@@H](NC(=O)[C@H](C)NC(=O)[C@H](NC(=O)[C@H](C)NC(=O)CNC(=O)[C@@H](NC=O)C(C)C)C(C)C)C(=O)N[C@H](C(=O)N[C@H](CC(C)C)C(=O)N[C@@H](Cc1c[nH]c2ccccc12)C(=O)N[C@@H](C(=O)N[C@@H](Cc1c[nH]c2ccccc12)C(=O)N[C@H](CC(C)C)C(=O)N[C@@H](Cc1c[nH]c2ccccc12)C(=O)N[C@H](CC(C)C)C(=O)N[C@@H](Cc1c[nH]c2ccccc12)C(=O)NCCO)C(C)C)C(C)C [compound 11439] (For-VGA[dV]A[dL]V[dL]W[dV]W[dL]W[dL]W-NHCH2CH2OH) , what cell viability/% is on record? 8.1

---

- CONDITION CONTEXT: cell viability/%
Where a SMILES comes first, the peptide text is derived from it. [ ]: non-standard residue; d: D form. The star is where a group is joined. NHCH2CH2OH = OCCN*; For = O=C*
Lab note: anything with viability below 90% is marked condition met; values at 90% or higher are marked condition not met.

• CC(C)C[C@@H](NC(=O)[C@H](C)NC(=O)[C@H](NC(=O)[C@H](C)NC(=O)CNC(=O)[C@@H](NC=O)C(C)C)[C@H](C)O)C(=O)N[C@H](C(=O)N[C@@H](C(=O)N[C@@H](Cc1c[nH]c2ccccc12)C(=O)N[C@H](CC(C)C)C(=O)N[C@@H](Cc1c[nH]c2ccccc12)C(=O)N[C@@H](C(=O)N[C@@H](Cc1c[nH]c2ccccc12)C(=O)N[C@H](CC(C)C)C(=O)N[C@@H](Cc1c[nH]c2ccccc12)C(=O)NCCO)C(C)C)C(C)C)C(C)C [compound 10313] (For-VGA[dT]A[dL]V[dV]W[dL]W[dV]W[dL]W-NHCH2CH2OH) = condition not met
• CC(C)C[C@@H](NC(=O)[C@@H](NC(=O)[C@H](NC(=O)[C@H](C)NC(=O)[C@H](NC(=O)[C@H](C)NC(=O)CNC(=O)[C@@H](NC=O)C(C)C)C(C)C)C(C)C)C(C)C)C(=O)N[C@@H](Cc1c[nH]c2ccccc12)C(=O)N[C@@H](C(=O)N[C@@H](Cc1c[nH]c2ccccc12)C(=O)N[C@@H](C(=O)N[C@@H](Cc1c[nH]c2ccccc12)C(=O)N[C@@H](C(=O)N[C@@H](Cc1c[nH]c2ccccc12)C(=O)NCCO)[C@H](C)O)C(C)C)C(C)C [compound 7050] (For-VGA[dV]A[dV]V[dL]W[dV]W[dV]W[dT]W-NHCH2CH2OH) = condition not met
• CC(C)C[C@@H](NC(=O)[C@H](Cc1c[nH]c2ccccc12)NC(=O)[C@H](NC(=O)[C@@H](NC(=O)[C@H](NC(=O)[C@H](C)NC(=O)[C@H](NC(=O)[C@H](C)NC(=O)CNC(=O)[C@@H](NC=O)C(C)C)C(C)C)[C@H](C)O)C(C)C)C(C)C)C(=O)N[C@@H](Cc1c[nH]c2ccccc12)C(=O)N[C@@H](C(=O)N[C@@H](Cc1c[nH]c2ccccc12)C(=O)N[C@@H](C(=O)N[C@@H](Cc1c[nH]c2ccccc12)C(=O)NCCO)C(C)C)C(C)C [compound 9055] (For-VGA[dV]A[dT]V[dV]W[dL]W[dV]W[dV]W-NHCH2CH2OH) = condition met
• CC(C)C[C@@H](NC(=O)[C@H](C)NC(=O)[C@H](NC(=O)[C@H](C)NC(=O)CNC(=O)[C@@H](NC=O)C(C)C)C(C)C)C(=O)N[C@H](C(=O)N[C@H](CC(C)C)C(=O)N[C@@H](Cc1c[nH]c2ccccc12)C(=O)N[C@H](CC(C)C)C(=O)N[C@@H](Cc1c[nH]c2ccccc12)C(=O)N[C@@H](C(=O)N[C@@H](Cc1c[nH]c2ccccc12)C(=O)N[C@H](CC(C)C)C(=O)N[C@@H](Cc1c[nH]c2ccccc12)C(=O)NCCO)C(C)C)C(C)C [compound 3255] (For-VGA[dV]A[dL]V[dL]W[dL]W[dV]W[dL]W-NHCH2CH2OH) = condition met
• CC(C)C[C@@H](NC(=O)[C@H](C)NC(=O)[C@H](NC(=O)[C@H](C)NC(=O)CNC(=O)[C@@H](NC=O)C(C)C)[C@H](C)O)C(=O)N[C@H](C(=O)N[C@H](CC(C)C)C(=O)N[C@@H](Cc1c[nH]c2ccccc12)C(=O)N[C@@H](C(=O)N[C@@H](Cc1c[nH]c2ccccc12)C(=O)N[C@@H](C(=O)N[C@@H](Cc1c[nH]c2ccccc12)C(=O)N[C@H](CC(C)C)C(=O)N[C@@H](Cc1c[nH]c2ccccc12)C(=O)NCCO)C(C)C)[C@H](C)O)C(C)C [compound 5532] (For-VGA[dT]A[dL]V[dL]W[dT]W[dV]W[dL]W-NHCH2CH2OH) = condition not met

Decide: viability of CC(C)C[C@@H](NC(=O)[C@H](Cc1c[nH]c2ccccc12)NC(=O)[C@H](NC(=O)[C@@H](NC(=O)[C@H](NC(=O)[C@H](C)NC(=O)[C@H](NC(=O)[C@H](C)NC(=O)CNC(=O)[C@@H](NC=O)C(C)C)C(C)C)C(C)C)C(C)C)C(C)C)C(=O)N[C@@H](Cc1c[nH]c2ccccc12)C(=O)N[C@H](CC(C)C)C(=O)N[C@@H](Cc1c[nH]c2ccccc12)C(=O)N[C@@H](C(=O)N[C@@H](Cc1c[nH]c2ccccc12)C(=O)NCCO)[C@H](C)O [compound 4603] (For-VGA[dV]A[dV]V[dV]W[dL]W[dL]W[dT]W-NHCH2CH2OH) strictly below 90%? condition not met

Bench note: check whether CC(C)C[C@@H](NC(=O)[C@H](Cc1c[nH]c2ccccc12)NC(=O)[C@H](NC(=O)[C@H](Cc1c[nH]c2ccccc12)NC(=O)[C@H](NC(=O)[C@H](Cc1c[nH]c2ccccc12)NC(=O)[C@@H](CC(C)C)NC(=O)[C@@H](NC(=O)[C@H](NC(=O)[C@H](C)NC(=O)[C@H](NC(=O)[C@H](C)NC(=O)CNC(=O)[C@@H](NC=O)C(C)C)C(C)C)[C@H](C)O)C(C)C)C(C)C)C(C)C)C(=O)N[C@@H](Cc1c[nH]c2ccccc12)C(=O)NCCO [compound 7320] (For-VGA[dV]A[dT]V[dL]W[dV]W[dV]W[dL]W-NHCH2CH2OH) shows viability below 90% condition met
